Recorded z-score values for a group of compounds are listed next.
assay-overview: CREB reporter modulators without forskolin, primary screen, cell-based, PC12, CRE-LacZ reporter, unstimulated (AID 1145)
assay-conditions: no forskolin, luminescence, 4.5 h, higher = more signal, called active from +8 up or from −8 down
Active and inactive are the calls of the source.

Look over these answered cases.
COCCOC(=O)N1C(=O)[C@@]2(c3cc(C#CCCO)ccc31)[C@H](C(=O)N1CCCCCCC1)[C@H]1C(=O)O[C@H](c3ccccc3)[C@H](c3ccccc3)N1[C@@H]2c1ccc(O)cc1: -0.815 (inactive)
CCCC=C(CCC)[C@@H](NS(=O)(=O)c1ccc(C(F)(F)F)cc1)c1ccc(-c2ccccc2)cc1: -0.372 (inactive)
C=C(COC)/C(=C/C[C@@H](OC(C)=O)c1cccc(OCCO)c1)c1cc(C(=O)OC)ccc1OC: 4.69 (inactive)
CO[C@H]1COC(=O)[C@H](C)NC(=O)CC=C[C@@H](C)[C@H](NS(=O)(=O)c2ccc(C)cc2)COC(=O)CC=C[C@@H]1C: 0.429 (inactive)
C=CC[C@]1(C(=O)NCC(O)CO)N=C(c2ccc(OCCCO)cc2)O[C@H]1c1ccccc1 (some centres undefined): 1.37 (inactive)
COCCOC(=O)N1C(=O)[C@@]2(c3cc(C#CCNC(N)=O)ccc31)[C@H](c1ccc(OCCO)cc1)N1[C@H](c3ccccc3)[C@H](c3ccccc3)OC(=O)[C@H]1[C@@H]2C(=O)N1CCCCCCC1: -0.0566 (inactive)
CC(C)(C)OC(=O)CC[C@@]1(C(=O)NCc2ccccc2)N=C(c2ccc(OCCCO)cc2)O[C@@H]1c1ccccc1: 0.573 (inactive)
C=CCc1cccc([C@@H]2[C@@H](C)CC[C@H]3C(=O)N4[C@H](c5cccc(CC=C)c5)[C@@H](C)CC[C@H]4C(=O)N23)c1: 3.64 (inactive)
C=C(CCCC)/C(=C/C[C@H](OC(=O)c1ccncc1)c1cccc(OCCO)c1)c1cc(C(=O)OC)ccc1OC: 6.81 (inactive)
COc1ccc([Si](C)(C)[C@H]2[C@H](CCO)O[C@@]3(C(=O)N(Cc4ccccc4)c4ccc(N5C(=O)c6cccc7cccc5c67)cc43)[C@@H]2C)cc1: 4.04 (inactive)

Form field: reported z-score of O=C(NCc1ccccc1)c1ccc(Br)cc1[N+](=O)[O-]
0.685 (inactive)

For the compound shown here, COCCOC(=O)N1C(=O)[C@@]2(c3cc(C#CCC(C(=O)OC)C(=O)OC)ccc31)[C@H](c1ccccc1OCCO)N1[C@H](c3ccccc3)[C@H](c3ccccc3)OC(=O)[C@H]1[C@@H]2C(=O)N1CCCCCCC1 , give the reported z-score.
-0.329 (inactive)

Consider the compound CCC(=O)[C@]12O[C@@]3([C@@H]4C(=O)OCC[C@@H]41)N(Cc1ccccc1)C(C)=C(C(=O)OC)[C@@H](c1ccccc1)N3C2=O and give its measured z-score.
1.01 (inactive)

Which z-score reading was recorded for the compound CCC(=O)[C@]12O[C@@]3([C@@H]4C(=O)OCC[C@@H]41)N(CC)C(C)=C(C(=O)OC)[C@@H](c1ccccc1)N3C2=O ?
-0.0708 (inactive)
